- TEST: Cytotoxicity against human WS1 cells assessed as inhibition of cell growth measured after 48 hrs by Hoechst 33258 staining based fluorescence assay
- Format: toxicity
Reported IC50 at 48 h is given for each of the following molecules.
I only need the number, in µM, no unit after it.

Please review the following examples before continuing.
Reported IC50 at 48 h for C[C@H]1[C@H](C)CC[C@]2(C(=O)O)CC[C@]3(C)C(=CC[C@@H]4[C@@]5(C)CC[C@H](O[C@@H]6OC[C@@H](O)[C@H](O)[C@H]6O)C(C)(C)[C@@H]5CC[C@]43C)[C@H]12 : what is it?
9

Which value of IC50 at 48 h has been reported for C[C@H]1[C@H](C)CC[C@]2(CO[C@@H]3OC[C@@H](O)[C@@H](O)[C@@H]3O)CC[C@]3(C)C(=CC[C@@H]4[C@@]5(C)CC[C@H](O[C@H]6OC[C@@H](O)[C@@H](O)[C@@H]6O)C(C)(C)[C@@H]5CC[C@]43C)[C@H]12 in the records?
20

Look up IC50 at 48 h for this molecule: C[C@H]1[C@H](C)CC[C@]2(C(=O)O)CC[C@]3(C)C(=CC[C@@H]4[C@@]5(C)CC[C@H](O)C(C)(C)[C@@H]5CC[C@]43C)[C@H]12
13.1

# input molecule: C[C@H]1[C@H](C)CC[C@]2(CO[C@@H]3OC[C@@H](O)[C@H](O)[C@@H]3O)CC[C@]3(C)C(=CC[C@@H]4[C@@]5(C)CC[C@H](O[C@H]6OC[C@@H](O)[C@H](O)[C@@H]6O)C(C)(C)[C@@H]5CC[C@]43C)[C@H]12 ; wanted: its IC50 at 48 h
10

Would you mind telling me what IC50 at 48 h value was observed for C[C@H]1[C@H](C)CC[C@]2(C(=O)O)CC[C@]3(C)C(=CC[C@@H]4[C@@]5(C)CC[C@H](O[C@H]6OC[C@@H](O)[C@@H](O)[C@@H]6O)C(C)(C)[C@@H]5CC[C@]43C)[C@H]12 ?
10

***
Name the reported IC50 at 48 h value associated with the molecule C[C@H]1[C@H](C)CC[C@]2(CO[C@H]3OC[C@@H](O)[C@H](O)[C@H]3O)CC[C@]3(C)C(=CC[C@@H]4[C@@]5(C)CC[C@H](O[C@@H]6OC[C@@H](O)[C@H](O)[C@H]6O)C(C)(C)[C@@H]5CC[C@]43C)[C@H]12
20

Report IC50 at 48 h for C[C@H]1[C@H](C)CC[C@]2(C(=O)O)CC[C@]3(C)C(=CC[C@@H]4[C@@]5(C)CC[C@H](O[C@@H]6O[C@H](C)[C@H](O)[C@H](O)[C@H]6O)C(C)(C)[C@@H]5CC[C@]43C)[C@H]12 please.
13.1

Need IC50 at 48 h, item C[C@H]1[C@H](C)CC[C@]2(CO[C@@H]3O[C@H](C)[C@H](O)[C@H](O)[C@H]3O)CC[C@]3(C)C(=CC[C@@H]4[C@@]5(C)CC[C@H](O[C@@H]6O[C@H](C)[C@H](O)[C@H](O)[C@H]6O)C(C)(C)[C@@H]5CC[C@]43C)[C@H]12
16

What does the data say about its IC50 at 48 h? Entry: C[C@H]1[C@H](C)CC[C@]2(C(=O)O)CC[C@]3(C)C(=CC[C@@H]4[C@@]5(C)CC[C@H](O[C@H]6O[C@@H](C)[C@@H](O)[C@@H](O)[C@@H]6O)C(C)(C)[C@@H]5CC[C@]43C)[C@H]12
7.2

Item under review: C[C@H]1[C@H](C)CC[C@]2(CO[C@H]3O[C@@H](C)[C@@H](O)[C@@H](O)[C@@H]3O)CC[C@]3(C)C(=CC[C@@H]4[C@@]5(C)CC[C@H](O[C@H]6O[C@@H](C)[C@@H](O)[C@@H](O)[C@@H]6O)C(C)(C)[C@@H]5CC[C@]43C)[C@H]12 . Reported IC50 at 48 h?
62

Entry C[C@H]1[C@H](C)CC[C@]2(C(=O)O)CC[C@]3(C)C(=CC[C@@H]4[C@@]5(C)CC[C@H](O[C@@H]6O[C@@H](C)[C@H](O)[C@@H](O)[C@H]6O)C(C)(C)[C@@H]5CC[C@]43C)[C@H]12 : reported IC50 at 48 h = ?
8.5

I am curious: what IC50 at 48 h value has been reported for C[C@H]1[C@H](C)CC[C@]2(CO[C@H]3OC[C@H](O)[C@H](O)[C@H]3O)CC[C@]3(C)C(=CC[C@@H]4[C@@]5(C)CC[C@H](O[C@@H]6OC[C@H](O)[C@H](O)[C@H]6O)C(C)(C)[C@@H]5CC[C@]43C)[C@H]12 ?
37

Value lookup for IC50 at 48 h; key = C[C@H]1[C@H](C)CC[C@]2(C(=O)O)CC[C@]3(C)C(=CC[C@@H]4[C@@]5(C)CC[C@H](O[C@H]6OC[C@H](O)[C@@H](O)[C@@H]6O)C(C)(C)[C@@H]5CC[C@]43C)[C@H]12
30

Consider the molecule shown here: C=C(C)[C@@H]1CC[C@]2(CO[C@@H]3O[C@@H](C)[C@H](O)[C@@H](O)[C@H]3O)CC[C@]3(C)[C@H](CC[C@@H]4[C@@]5(C)CC[C@H](O[C@@H]6O[C@@H](C)[C@H](O)[C@@H](O)[C@H]6O)C(C)(C)[C@@H]5CC[C@]43C)[C@@H]12 What is its recorded IC50 at 48 h?
1.42

Given the molecule C[C@H]1[C@H](C)CC[C@]2(CO[C@@H]3O[C@@H](C)[C@H](O)[C@@H](O)[C@H]3O)CC[C@]3(C)C(=CC[C@@H]4[C@@]5(C)CC[C@H](O[C@@H]6O[C@@H](C)[C@H](O)[C@@H](O)[C@H]6O)C(C)(C)[C@@H]5CC[C@]43C)[C@H]12 , what is its reported IC50 at 48 h?
14

====

- TEST: Cytotoxicity against human WS1 cells assessed as inhibition of cell growth measured after 48 hrs by Hoechst 33258 staining based fluorescence assay
- Format: toxicity
EXPERIMENTAL READOUT: IC50 at 48 h (µM)
Field format: number, assumed µM, no unit text.

# IC50 at 48 h lookup, item C[C@H]1[C@H](C)CC[C@]2(C(=O)O)CC[C@]3(C)C(=CC[C@@H]4[C@@]5(C)CC[C@H](O[C@@H]6OC[C@H](O)[C@@H](O)[C@H]6O)C(C)(C)[C@@H]5CC[C@]43C)[C@H]12
20

====

- TEST: Cytotoxicity against human WS1 cells assessed as inhibition of cell growth measured after 48 hrs by Hoechst 33258 staining based fluorescence assay
- Type: toxicity
EXPERIMENTAL READOUT: IC50 at 48 h (µM)
Express it in µM; write the number only.

// query IC50 at 48 h value for entry C[C@H]1[C@H](C)CC[C@]2(CO[C@H]3OC[C@H](O)[C@@H](O)[C@H]3O)CC[C@]3(C)C(=CC[C@@H]4[C@@]5(C)CC[C@H](O[C@@H]6OC[C@H](O)[C@@H](O)[C@H]6O)C(C)(C)[C@@H]5CC[C@]43C)[C@H]12
60

Reported IC50 at 48 h for C[C@H]1[C@H](C)CC[C@]2(C(=O)O)CC[C@]3(C)C(=CC[C@@H]4[C@@]5(C)CC[C@H](O[C@H]6OC[C@@H](O)[C@H](O)[C@@H]6O)C(C)(C)[C@@H]5CC[C@]43C)[C@H]12 : what is it?
4.6

For C[C@H]1[C@H](C)CC[C@]2(C(=O)O)CC[C@]3(C)C(=CC[C@@H]4[C@@]5(C)CC[C@H](O[C@H]6O[C@H](C)[C@@H](O)[C@H](O)[C@@H]6O)C(C)(C)[C@@H]5CC[C@]43C)[C@H]12 , what is its reported IC50 at 48 h?
77

Please look at the following molecule next.
Requested field: IC50 at 48 h. Item: C[C@H]1[C@H](C)CC[C@]2(C(=O)O)CC[C@]3(C)C(=CC[C@@H]4[C@@]5(C)CC[C@H](O[C@@H]6OC[C@H](O)[C@H](O)[C@H]6O)C(C)(C)[C@@H]5CC[C@]43C)[C@H]12
5.9

====

Catalogue of IC50 at 48 h readings, one per entry.
- TEST: Cytotoxicity against human WS1 cells assessed as inhibition of cell growth measured after 48 hrs by Hoechst 33258 staining based fluorescence assay
- Assay type: toxicity

Could you tell me which IC50 at 48 h is on file for C[C@H]1[C@H](C)CC[C@]2(CO)CC[C@]3(C)C(=CC[C@@H]4[C@@]5(C)CC[C@H](O)C(C)(C)[C@@H]5CC[C@]43C)[C@H]12 ?
> 200 µM

Field request: IC50 at 48 h | item: COc1cc([C@@H]2c3cc4c(cc3[C@@H](O[C@@H]3O[C@@H]5CO[C@@H](C)O[C@H]5[C@H](O)[C@H]3O)[C@H]3COC(=O)[C@H]23)OCO4)cc(OC)c1O [ETOPOSIDE]
> 50 µM

Let's switch to this compound now.
Looking for the measured IC50 at 48 h of C[C@H]1[C@H](C)CC[C@]2(CO[C@H]3O[C@H](C)[C@@H](O)[C@H](O)[C@@H]3O)CC[C@]3(C)C(=CC[C@@H]4[C@@]5(C)CC[C@H](O[C@H]6O[C@H](C)[C@@H](O)[C@H](O)[C@@H]6O)C(C)(C)[C@@H]5CC[C@]43C)[C@H]12 , can you help?
> 200 µM
